Test system: DeltatarO mutant
Assay procedure: S. aureus survival, RN4220 and DeltatarO strains – OD600, teichoic acid synthesis inhibitors, primary screen (AID 463173)
Protocol conditions: S. aureus RN4220 wild type/DeltatarO growth, OD600, 18 h, screened at 18.75 µg/mL (by protocol)
The whole screen tested about 52,000 compounds, of which about 4,300 (8.3%) were called active. No stated cut-off is given here; in the data, active means survival mostly below about 52% (no sharp cut-off); inactive means mostly above about 56%. The sample holds actives, similar compounds and a random draw of the others, so the mix is not that of the screen.
Assign a class; possible classes are active, inactive

# Molecule, Subject of test, Qualitative label
records = [
    ("Cc1c(Cl)cccc1-c1ccc(C(=O)Nc2ccc3oc(-c4cccnc4)nc3c2)o1", "DeltatarO mutant", "inactive"),
    ("Cc1cccc(OC2CCS(=O)(=O)C2)c1 (stereo not given)", "DeltatarO mutant", "inactive"),
    ("COC(=O)c1scc(-c2ccc(C)cc2)c1S(=O)(=O)Nc1cccc(Cl)c1C", "DeltatarO mutant", "inactive"),
    ("CCOc1ccc(NC(=O)c2cc3c(n(-c4ccc(OC)cc4)c2=O)CC(C)(C)CC3=O)cc1", "DeltatarO mutant", "inactive"),
    ("CCN(CCCNC(=O)c1cc2cc3ccc(C)cc3nc2s1)c1ccccc1", "DeltatarO mutant", "inactive"),
    ("Cc1ccccc1OCC(=O)Nc1ccc(-c2nc3cc(Cl)cc(Cl)c3o2)cc1", "DeltatarO mutant", "inactive"),
    ("CCN(CCCNC(=O)c1cc2cc3cc(OC)ccc3nc2s1)c1cccc(C)c1", "DeltatarO mutant", "active"),
    ("CCN(CCCNC(=O)c1cc2cc3cc(C)ccc3nc2s1)c1cccc(C)c1", "DeltatarO mutant", "inactive"),
    ("Cc1ccsc1CCN1C(=O)N(c2ccccc2)C(=O)C1CC(=O)Nc1ccc(F)cc1 (stereo not given)", "DeltatarO mutant", "inactive"),
]

Please turn your attention to the following entry.
Short answer needed: outcome of this test for CCN(CCCNC(=O)c1cc2cc3ccc(OC)cc3nc2s1)c1ccccc1 ? inactive

* * *

System: DeltatarO mutant
Assay procedure: S. aureus survival, RN4220 and DeltatarO strains – OD600, teichoic acid synthesis inhibitors, primary screen (AID 463173)
Protocol conditions: S. aureus RN4220 wild type/DeltatarO growth, OD600, 18 h, hits give low values, screened at 18.75 µg/mL (by protocol)
Among all 52,000 compounds or so, about 4,300 (8.3%) were called active. This is one part of a sample in which actives are shown more often than they occur.
Flag rule - survival less than 90% flags Fulfilled; the remaining entries get Not fulfilled.

Before answering, review these 5 worked examples.
# Compound, Qualitative label
records = [
    ("Cc1ccc(OCCCCn2nnc3sc4c(c3c2=O)CCCC4)cc1", "Fulfilled"),
    ("CCC(=O)N1CCc2cc(S(=O)(=O)NC(Cc3ccccc3)C(=O)Nc3ccccc3C)ccc21 (configuration not stated)", "Not fulfilled"),
    ("Cc1cccc(OCCn2c(-c3ccc(Cl)cc3)nc3ccccc3c2=O)c1", "Not fulfilled"),
    ("CCOC(=O)c1ccccc1NC(=O)Cn1nnc2sc3c(c2c1=O)CCCC3", "Fulfilled"),
    ("Cc1cc(C)cc(OCCCn2c(-c3ccc(Cl)cc3)nc3ccccc3c2=O)c1", "Fulfilled"),
]

Quick check: survival of O=C(N=Nc1c(O)[nH]c2ccccc12)C1CC1c1ccccc1 (configuration not stated) under 90%? Fulfilled

Check if survival falls below 90% for COC(=O)c1ccc(Cn2nnc3sc4c(c3c2=O)CCCC4)cc1 . Fulfilled

Decide: survival of Cc1ccc(OCCOCCn2c(-c3ccc(Cl)cc3)nc3ccccc3c2=O)cc1 strictly below 90%? Fulfilled

Lab note: survival threshold 90%. Does this compound come in strictly under it? CCOc1ccccc1NC(=O)C(CC)Sc1nc2ccncc2[nH]1 (configuration not stated) Not fulfilled

is_below(survival, 90%) for COc1ccc(OCCn2nnc3sc4c(c3c2=O)CCCC4)cc1 ? Fulfilled

Origin of the recorded values: PubChem BioAssay AID463173
